- System: cocklebur (Xanthium strumarium)
- protocol: Test B pre-/postemergence plant response
- Type: in vivo
- applied.conditions: Postemergence, 31 g ai/ha; 0 to 100 scale (0 no effect, 100 complete control)
experimental.readout: Plant response rating, Cocklebur
Answer using only a numeral; do not append any unit.

The following compounds have reported results that may help.
Cc1ccc(Cl)cc1-n1c(-c2cccc(F)c2)ncc(C(=O)C2=C(O)CCCC2=O)c1=O	100
COCCn1c(-c2cccc(F)c2)ncc(C(=O)C2=C(O)CCCC2=O)c1=O	65
O=C1CCCC(O)=C1C(=O)c1cnc(-c2cccs2)n(C2CCCCC2)c1=O	60
CCCn1c(-c2ccsc2)ncc(C(=O)C2=C(O)C3CCC(C3)C2=O)c1=O (stereo not shown)	75
O=C1CCCC(O)=C1C(=O)c1cnc(-c2cccc(F)c2)n(C2CCCCC2)c1=O	100

Exercise: Need Plant response rating, Cocklebur, item CCCn1c(-c2cccc(Cl)c2)ncc(C(=O)C2=C(O)CCCC2=O)c1=O
Solution: 40

Exercise: Need Plant response rating, Cocklebur, item CCCn1c(-c2cc(F)cc(F)c2)ncc(C(=O)C2=C(O)CCCC2=O)c1=O
Solution: 70
